# experimental system: Dihydroorotate dehydrogenase (quinone), mitochondrial (Plasmodium falciparum (isolate 3D7))
# protocol text: PfDHODH enzyme inhibitors, primary screen, biochemical, C-terminal His tag, absorbance 600 nm (AID 1175);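 further: recombinant parasite enzyme with a five histidine tag at its C terminus; test concentration not given here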
# condition notes: DCIP absorbance 600 nm, higher = more signal, called active from +8 up or from −8 down
The source made the active and inactive calls.

{"columns": ["sample smiles", "composite z-score"],
 "data": [
  ["COc1ccc(C#Cc2ccc3c(c2)[C@]2(C(=O)N3)[C@H](C(=O)NC[C@H](O)c3ccccc3)[C@H]3C(=O)O[C@H](c4ccccc4)[C@H](c4ccccc4)N3[C@@H]2c2ccc(O)cc2)cc1", "0.843 (inactive)"],
  ["COc1ccc([C@H]2OC[C@@H]3C[C@@H](Cc4ccccc4)C(=O)N32)cc1", "-0.431 (inactive)"],
  ["C=CCOC(=O)[C@@H]1[C@H]2C(=O)O[C@H](c3ccccc3)[C@H](c3ccccc3)N2[C@H](c2ccc(OCCOC(=O)[C@H]3C[C@H]4C(=O)N5CCC[C@H]5C(=O)N4[C@H]3c3ccc(O)cc3)cc2)[C@@]12C(=O)Nc1ccc(I)cc12", "1.01 (inactive)"]
]}

Hey, just so you know, these numbers are from PubChem BioAssay.
